FYI, the data here is from ChEMBL document CHEMBL3991601.

Tested on: Bone morphogenetic protein receptor type-1A (Homo sapiens, UniProt P36894); note: in the data inactive means no Kd found up to 30 µM
Sequence (P36894 whole entry): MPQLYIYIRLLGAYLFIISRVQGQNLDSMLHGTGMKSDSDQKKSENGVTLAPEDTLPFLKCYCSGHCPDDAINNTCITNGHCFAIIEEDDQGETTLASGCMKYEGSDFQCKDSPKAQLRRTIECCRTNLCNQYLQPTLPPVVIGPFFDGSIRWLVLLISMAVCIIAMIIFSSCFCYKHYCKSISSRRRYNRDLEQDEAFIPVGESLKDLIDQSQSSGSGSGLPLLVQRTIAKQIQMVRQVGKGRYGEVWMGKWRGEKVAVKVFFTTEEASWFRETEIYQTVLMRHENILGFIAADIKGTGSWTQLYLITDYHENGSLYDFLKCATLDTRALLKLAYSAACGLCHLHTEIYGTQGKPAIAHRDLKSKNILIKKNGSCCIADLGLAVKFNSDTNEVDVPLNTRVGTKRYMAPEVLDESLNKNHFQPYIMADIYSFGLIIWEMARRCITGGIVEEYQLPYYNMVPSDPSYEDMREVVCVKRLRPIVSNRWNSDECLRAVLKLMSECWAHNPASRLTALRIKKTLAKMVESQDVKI
The source made the active and inactive calls.
Output constraint: value belongs to Y (active), N (inactive)

Worked examples, 5 molecules total:
# Molecule, Assigned label
measured = [
    ("O=C(Nc1c[nH]nc1-c1nc2cc(CN3CCOCC3)ccc2[nH]1)NC1CC1 [AT-9283]", "Y"),
    ("Cc1cc(Nc2ncc(Cl)c(Nc3ccccc3S(=O)(=O)C(C)C)n2)c(OC(C)C)cc1C1CCNCC1 [CERITINIB]", "N"),
    ("NC1(c2ccc(-c3nc4ccn5c(=O)[nH]nc5c4cc3-c3ccccc3)cc2)CCC1 [MK-2206]", "N"),
    ("FC(F)(F)c1ccc(/C=C/c2nc(COc3ccc(CCCCn4ccnn4)cc3)co2)cc1 [MUBRITINIB]", "N"),
    ("Cc1nc(NC(=O)N2CCC[C@H]2C(N)=O)sc1-c1ccnc(C(C)(C)C(F)(F)F)c1 [ALPELISIB]", "N"),
]

Moving on to the next molecule.
Record request — test call for Nc1ncnc2c1c(-c1cccc(OCc3ccccc3)c1)cn2[C@H]1C[C@@H](CN2CCC2)C1 [AEW-541]
N
